# Test system: NCI-H460
# Protocol text: NCI tumour cell line growth inhibition, 48 h
Active and inactive are the calls of the source. No stated cut-off is given here; in the data, active = GI50 up to about 1.1 µM and inactive = higher.
Each record here notes measured GI50.

Below, 2 compounds whose answers are already recorded.
>>> experimental_result("CC1=CC2C3(C)C(C)(C(C)=CP3(=O)c3c(C(C)C)cc(C(C)C)cc3C(C)C)C1P2(=O)c1c(C(C)C)cc(C(C)C)cc1C(C)C (stereo not drawn)")
"1.47 µM (inactive)"
>>> experimental_result("CC(O)(Cc1ccccc1C#N)Cc1ccccc1C#N")
"73.6 µM (inactive)"

# input for lookup
Query block: Field request: GI50 | item: COc1ccc2c(c1)O[C@@H]1[C@@H](OC3OC(CO)C(O)C(O)C3O)Oc3cc(OC)c(OC)cc3[C@]1(O)C2=O (stereo partly drawn)
Result block: > 100 µM (inactive)

====

# System: KM12
# Protocol text: NCI tumour cell line growth inhibition, 48 h
Where a name gives a salt, the structure may show the parent alone. The source made the active and inactive calls. No stated cut-off is given here; in the data, active = GI50 up to about 1.1 µM and inactive = higher.
Bench note: report the call from 1.0 = active, 0.0 = inactive

# example entries with known answers
>>> class_name("O=C1N[C@H](C(=O)O)[C@@H](c2ccc(OCc3ccccc3)cc2)O1")
0.0
>>> class_name("Cc1n[nH]c(N)c1C(N)=O")
0.0
>>> class_name("CN(C)c1ccc(C(=O)NCCCCCCC(=O)NO)cc1")
1.0
>>> class_name("COC(=O)C1=COC(C)C2C[n+]3ccc4c([nH]c5ccccc54)c3CC12 (stereo not drawn)")
0.0
>>> class_name("CC(=O)N[C@@H](Cc1ccc(O)cn1)C(=O)NCc1ccc(Cl)cc1")
0.0

Query block: Look up the recorded call for "O=C1/C(=C/c2ccccc2)CCCC/C1=C\c1ccccc1" in this test.
Result block: 0.0

Query block: Let us now turn to O=C(Nc1cc(Cl)c(Cl)cc1Cl)C(=O)C(C(=O)c1ccc(Cl)c(Cl)c1)C1OC(=O)c2ccccc21 (stereo not drawn)
Result block: 0.0

Query block: Let us now turn to "CN(C)/C(=N/C(=O)Nc1ccccc1)SCc1ccccc1"
Result block: 0.0

Query block: Let us now turn to "CN(C)CCNC(=O)Cn1ccc(=O)c2ccc([N+](=O)[O-])cc21"
Result block: 0.0

Query block: Let us now turn to CC(=O)N(O)CCCCCNC(=O)CCC(=O)N(O)CCCCCNC(=O)CCC(=O)N(O)CCCCCN [DEFEROXAMINE HYDROCHLORIDE]
Result block: 0.0

Query block: Let us now turn to COc1ccc(C2C(=O)c3c(OC)cc(OC)cc3OC2c2cccnc2)cc1 (stereo not drawn)
Result block: 0.0

Query block: Let us now turn to C/C(N)=C/C(=O)c1[nH]c(C(=O)O)cc1C1CCN(Cc2ccccc2)C1=O (stereo not drawn)
Result block: 0.0

Query block: Let us now turn to "Brc1ccc(C2=NCSC(c3ccc(Br)cc3)=N2)cc1"
Result block: 0.0

====

# Test system: NCI-H522
# Protocol text: NCI tumour cell line growth inhibition, 48 h
Calls of active or inactive are those of the source. Rule as the data show it: active = GI50 up to about 1.1 µM and inactive = higher.
Each record here notes measured GI50.

Below, 4 molecules whose answers are already recorded.
>>> experimental_result("COc1cc2c[n+](C)c3c4cc(OC)c(OC(C)C)cc4ccc3c2cc1OC")
"16.9 µM (inactive)"
>>> experimental_result("C=CCC1(CN(C)C)CC/C(=C\\c2ccc3c(c2)OCO3)C1=O (stereo not given)")
"17.9 µM (inactive)"
>>> experimental_result("CCCCCCCCCCCCCC1CCC(CC)N1 (stereo not given)")
"18.2 µM (inactive)"
>>> experimental_result("CCCCN/C(=N\\C#N)N(Cc1ccccc1)Cc1ccccc1")
"15 µM (inactive)"

Query block: Field request: GI50 | item: "O=C1C=CC(=O)c2ccc(=O)ccc21"
Result block: 2.09 µM (inactive)
